# Tested on: CDK4/Cyclin D1 (Homo sapiens (Human), UniProt P11802)
# Sequence (P11802 whole entry): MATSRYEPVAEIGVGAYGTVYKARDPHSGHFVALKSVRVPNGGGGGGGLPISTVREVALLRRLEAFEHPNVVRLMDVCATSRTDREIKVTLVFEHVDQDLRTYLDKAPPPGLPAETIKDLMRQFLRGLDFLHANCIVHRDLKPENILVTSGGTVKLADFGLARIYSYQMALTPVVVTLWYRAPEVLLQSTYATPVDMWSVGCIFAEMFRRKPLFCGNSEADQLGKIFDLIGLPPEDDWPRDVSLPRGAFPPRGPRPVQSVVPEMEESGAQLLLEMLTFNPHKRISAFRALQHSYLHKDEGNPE
# Sequence (P24385 whole entry partner): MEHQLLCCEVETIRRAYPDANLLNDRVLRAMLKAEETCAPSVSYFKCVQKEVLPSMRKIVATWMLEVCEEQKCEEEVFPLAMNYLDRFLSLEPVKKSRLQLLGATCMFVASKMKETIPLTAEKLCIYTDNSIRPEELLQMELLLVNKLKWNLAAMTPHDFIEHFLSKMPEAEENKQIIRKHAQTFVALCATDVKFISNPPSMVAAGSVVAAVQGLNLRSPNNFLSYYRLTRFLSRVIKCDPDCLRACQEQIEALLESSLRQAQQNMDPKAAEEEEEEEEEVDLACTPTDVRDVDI
# Test description: CDK4/Cyclin D1 mobility shift assay
# Protocol conditions: activated CDK4/Cyclin D1, 3.5 mM ATP, Morrison fit; read-out: CDK4D1 Ki
Outcome measure: Ki (pM)
Use pM as the unit, but write only the number.

Req: What value of Ki has been reported for the following compound? Cc1nc2c(F)cc(-c3nc(N[C@@H]4CCN(S(C)(=O)=O)C[C@H]4O)ncc3Cl)cc2n1C [Example A08]
Resp: 1100

Req: Next up: CC(C)n1c(C2(N)CC2)nc2c(F)cc(-c3nc(N[C@@H]4CCOC[C@H]4O)ncc3Cl)cc21 [Example A43]
Resp: 4800

Req: Next up: C[C@@H]1COCc2nc3c(F)cc(-c4nc(N[C@@H]5CCN(S(C)(=O)=O)C[C@H]5O)ncc4Cl)cc3n21 [Example A11]
Resp: 300

Req: Next up: Cn1nc2c(F)cc(-c3nc(N[C@@H]4CCOC[C@H]4O)ncc3Cl)cc2c1C(C)(C)N [Example A49]
Resp: 700
